# systemUnderTest: Orexin type 1 (OX1R) receptor (Homo sapiens, UniProt O43613)
# Construct: expressed in transfected cells; host or cells: CHO cells (G418 selection)
# Sequence (O43613 whole entry): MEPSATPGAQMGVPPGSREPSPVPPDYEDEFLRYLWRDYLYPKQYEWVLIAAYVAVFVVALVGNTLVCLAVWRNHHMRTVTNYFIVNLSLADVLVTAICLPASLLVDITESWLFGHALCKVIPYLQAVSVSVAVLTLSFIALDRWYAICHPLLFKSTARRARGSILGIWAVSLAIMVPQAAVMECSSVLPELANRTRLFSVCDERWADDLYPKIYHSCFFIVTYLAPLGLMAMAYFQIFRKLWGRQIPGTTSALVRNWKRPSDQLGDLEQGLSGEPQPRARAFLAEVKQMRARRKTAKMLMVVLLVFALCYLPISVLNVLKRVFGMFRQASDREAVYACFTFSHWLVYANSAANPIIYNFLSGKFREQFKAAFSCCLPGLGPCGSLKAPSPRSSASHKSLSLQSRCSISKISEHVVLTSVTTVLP
# assayProtocol: In vitro orexin antagonism assay: intracellular calcium measurement (FLIPR), orexin-A 3 nM as agonist
# Type: cell-based
# runParameters: read-out: OX1R, % Inh. @ 1 uM
measuredMetric: inhibition at 1 µM (%)

Please review the following examples before continuing.
>>> assayresult("O=C(c1nn2ccccc2c1-c1ccccc1)N1CCC[C@H]1Cc1nc(-c2ccc(F)cn2)no1 [Example 117]")
100
>>> assayresult("O=C(c1nc2ccccn2c1-c1ccccn1)N1CCC[C@H]1Cc1nc(-c2ccc(F)cn2)no1 [Example 210]")
85
>>> assayresult("C[C@@]1(COc2ccc(C(F)(F)F)cn2)CCCN1C(=O)c1nn2cccnc2c1-c1ccccc1 [Example 146]")
99
>>> assayresult("C[C@@]1(COc2cnc(C(F)(F)F)cn2)CCCN1C(=O)c1c(-c2ncccn2)nn2ccccc12 [Example 166]")
53

I = O=C(c1nc2ccccn2c1-c1ccccn1)N1CCC[C@H]1Cc1nc(-c2ccccn2)no1 [Example 209]
II = O=C(c1c(-c2ccccc2)nc2cc(C(F)(F)F)ccn12)N1CC[C@H]1Cn1ccc(-c2ccc(F)cn2)n1 [Example 106]
Of I and II , whose reported inhibition at 1 µM is the larger number? Your answer should be the label attached to the chosen record.
I

src = patent US20260070922A1
